# target.or.test.system: BTK (Homo sapiens, UniProt Q06187)
# Construct: endogenous in cells; host or cells: Ramos (ATCC CRL-1596)
# Sequence (Q06187 whole entry): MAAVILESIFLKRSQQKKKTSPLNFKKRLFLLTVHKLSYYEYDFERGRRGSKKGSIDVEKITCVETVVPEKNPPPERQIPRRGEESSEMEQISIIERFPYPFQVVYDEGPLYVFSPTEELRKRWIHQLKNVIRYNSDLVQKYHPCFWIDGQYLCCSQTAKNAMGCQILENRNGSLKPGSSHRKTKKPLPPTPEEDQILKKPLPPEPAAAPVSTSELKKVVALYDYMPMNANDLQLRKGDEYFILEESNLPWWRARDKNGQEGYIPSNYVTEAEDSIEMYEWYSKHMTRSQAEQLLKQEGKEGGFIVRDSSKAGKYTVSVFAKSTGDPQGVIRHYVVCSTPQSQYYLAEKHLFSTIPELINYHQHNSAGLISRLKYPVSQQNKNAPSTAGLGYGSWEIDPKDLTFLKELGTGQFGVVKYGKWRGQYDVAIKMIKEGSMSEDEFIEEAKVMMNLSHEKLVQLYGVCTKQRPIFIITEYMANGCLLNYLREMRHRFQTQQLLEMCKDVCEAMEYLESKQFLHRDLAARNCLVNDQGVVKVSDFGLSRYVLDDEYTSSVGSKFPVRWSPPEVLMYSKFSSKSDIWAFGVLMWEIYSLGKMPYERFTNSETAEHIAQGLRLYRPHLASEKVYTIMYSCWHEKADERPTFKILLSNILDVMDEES
# procedure.text: Cellular BTK HTRF Assay (BTK degradation in Ramos cells)
# Format: cell-based
# run.parameters: four hours incubation, 37° C., BTK levels relative to DMSO-treated cells

{"compound": "CS(=O)(=O)c1ccc(Nc2nc(N3CCC[C@@H](NC(=O)CCCCCCc4cccc5c4CN(C4CCC(=O)NC4=O)C5=O)C3)cnc2C(N)=O)cc1 (stereo partly drawn)", "DC50": "50 to 500 nM"}
{"compound": "Cc1cc(Nc2nc(N3CCC[C@@H](NC(=O)C4CCN(CC5CCN(c6ccc7c(c6)C(=O)N(C6CCC(=O)NC6=O)C7=O)CC5)CC4)C3)cnc2C(N)=O)sn1 (stereo partly drawn)", "DC50": "< 7.5 nM"}
{"compound": "Cc1cc(Nc2nc(N3CCC[C@@H](NC(=O)C4CCN(CC5CN(c6ccc7c(c6)C(=O)N(C6CCC(=O)NC6=O)C7=O)C5)CC4)C3)cnc2C(N)=O)sn1 (stereo partly drawn)", "DC50": "< 7.5 nM"}
{"compound": "CS(=O)(=O)c1ccc(Nc2nc(N3CCC[C@@H](NC(=O)N4CCC5(CC4)CCN(c4ccc6c(c4)C(=O)N(C4CCC(=O)NC4=O)C6=O)CC5)C3)cnc2C(N)=O)cc1 (stereo partly drawn)", "DC50": "< 7.5 nM"}
{"compound": "CS(=O)(=O)c1ccc(Nc2nc(N3CCC[C@@H](NC(=O)C4CCN(CC5CCN(c6ccc7c(c6)C(=O)N(C6CCC(=O)NC6=O)C7=O)CC5)C4)C3)cnc2C(N)=O)cc1 (stereo partly drawn)", "DC50": "< 7.5 nM"}
{"compound": "CS(=O)(=O)c1ccc(Nc2nc(N3CCC[C@@H](NC(=O)C4CCC5(CC4)CCN(c4ccc6c(c4)C(=O)N(C4CCC(=O)NC4=O)C6=O)CC5)C3)cnc2C(N)=O)cc1 (stereo partly drawn)", "DC50": "< 7.5 nM"}
{"compound": "Cc1cc(Nc2nc(N3CCC[C@@H](NC(=O)N4CCN(c5ccc6c(c5)C(=O)N(C5CCC(=O)NC5=O)C6=O)CC4)C3)cnc2C(N)=O)sn1 (stereo partly drawn)", "DC50": "50 to 500 nM"}
{"compound": "Cc1cc(Nc2nc(N3CCC[C@@H](NC(=O)OCCC4CCN(c5ccc6c(c5)C(=O)N(C5CCC(=O)NC5=O)C6=O)CC4)C3)cnc2C(N)=O)sn1 (stereo partly drawn)", "DC50": "50 to 500 nM"}
{"compound": "Cn1cc(Nc2nc(N3CCC[C@@H](N4CC5(CN(CC6CN(c7ccc8c(c7)C(=O)N(C7CCC(=O)NC7=O)C8=O)C6)C5)OC4=O)C3)cnc2C(N)=O)cn1 (stereo partly drawn)", "DC50": "< 7.5 nM"}
{"compound": "Cn1cc(Nc2nc(N3CCC[C@@H](NC(=O)C4CCN(CC5CCN(c6ccc7c(c6)C(=O)N(C6CCC(=O)NC6=O)C7=O)CC5)CC4)C3)cnc2C(N)=O)cn1 (stereo partly drawn)", "DC50": "< 7.5 nM"}
{"compound": "Cc1cc(Nc2nc(N3CCC[C@@H](NC(=O)N4CCN(CC5CCN(c6ccc7c(c6)C(=O)N(C6CCC(=O)NC6=O)C7=O)CC5)CC4)C3)cnc2C(N)=O)sn1 (stereo partly drawn)", "DC50": "< 7.5 nM"}
{"compound": "Cn1cc(Nc2nc(N3CCC[C@@H](N4CC5(CN(CC6CCN(c7ccc8c(c7)C(=O)N(C7CCC(=O)NC7=O)C8=O)CC6)C5)OC4=O)C3)cnc2C(N)=O)cn1 (stereo partly drawn)", "DC50": "< 7.5 nM"}
{"compound": "CS(=O)(=O)c1ccc(Nc2nc(N3CCC[C@@H](NC(=O)OC[C@@H]4CCN(c5ccc6c(c5)C(=O)N(C5CCC(=O)NC5=O)C6=O)C4)C3)cnc2C(N)=O)cc1 (stereo partly drawn)", "DC50": "50 to 500 nM"}
{"compound": "Cc1cc(Nc2nc(N3CCCC(NC(=O)CCOCCCc4cccc5c4CN(C4CCC(=O)NC4=O)C5=O)C3)cnc2C(N)=O)sn1 (stereo in doubt)", "DC50": "50 to 500 nM"}
{"compound": "CS(=O)(=O)c1ccc(Nc2nc(N3CCC[C@@H](NC(=O)OCCCCCOc4ccc5c(c4)C(=O)N(C4CCC(=O)NC4=O)C5=O)C3)cnc2C(N)=O)cc1 (stereo partly drawn)", "DC50": "7.5 to 50 nM"}
{"compound": "Cn1cc(Nc2nc(N3CCC[C@@H](NC(=O)C4CCN(CC5CN(c6ccc7c(c6)C(=O)N(C6CCC(=O)NC6=O)C7=O)C5)CC4)C3)cnc2C(N)=O)cn1 (stereo partly drawn)", "DC50": "< 7.5 nM"}
{"compound": "CS(=O)(=O)c1ccc(Nc2nc(N3CCC[C@@H](NC(=O)C4CCC5(CC4)CCN(Cc4ccc6c(c4)C(=O)N(C4CCC(=O)NC4=O)C6=O)CC5)C3)cnc2C(N)=O)cc1 (stereo partly drawn)", "DC50": "< 7.5 nM"}
{"compound": "CS(=O)(=O)c1ccc(Nc2nc(N3CCC[C@@H](NC(=O)OCCCCCCCOc4ccc5c(c4)C(=O)N(C4CCC(=O)NC4=O)C5=O)C3)cnc2C(N)=O)cc1 (stereo partly drawn)", "DC50": "7.5 to 50 nM"}
{"compound": "CS(=O)(=O)c1ccc(Nc2nc(N3CCC[C@@H](NC(=O)C4CC5CCC(C4)N5C4CCN(c5ccc6c(c5)C(=O)N(C5CCC(=O)NC5=O)C6=O)CC4)C3)cnc2C(N)=O)cc1 (stereo partly drawn)", "DC50": "50 to 500 nM"}
{"compound": "CS(=O)(=O)c1ccc(Nc2nc(N3CCC[C@@H](NC(=O)N4CCN(Cc5ccc6c(c5)C(=O)N(C5CCC(=O)NC5=O)C6=O)CC4)C3)cnc2C(N)=O)cc1 (stereo partly drawn)", "DC50": "50 to 500 nM"}
{"compound": "CS(=O)(=O)c1ccc(Nc2nc(N3CCC[C@@H](NC(=O)N4CCC5(CC4)CN(Cc4ccc6c(c4)C(=O)N(C4CCC(=O)NC4=O)C6=O)C5)C3)cnc2C(N)=O)cc1 (stereo partly drawn)", "DC50": "< 7.5 nM"}
